Data credit: PubChem BioAssay (NCI)

Test system: K-562 leukemia
Test: NCI-60 one-dose screen, 48 h
Settings: 10 µM unless noted
About 83,000 compounds went through this panel and 20% of them were active in at least one assay; those are over-represented in the sample as a whole. Activity calls are given as the source filed them. The calls were made as follows: active = growth percent below 10; inactive = the rest.
Respond with a class label; see y = active, n = inactive

Reference set (6 entries):
| molecule | group |
| --- | --- |
| Cc1cccc(NC(=O)c2sc3nc4c(cc3c2N)C(=O)CCC4)c1 | n |
| COc1cccc(/C=C2/C(=O)N(Cc3ccco3)SC2=S)c1OC | n |
| COc1ccc(/C=c2/c(=O)[nH]c3nc4sc(C)c(C)c4c(=O)n23)cc1 | n |
| CC/C=C\C[C@H](F)C/C=C1/C(=O)C=C[C@@H]1C/C=C\CCCC(=O)OC | y |
| C=C1C(=O)O[C@H]2[C@H]1CC/C(Cn1cc(Cn3ccc4cc(Cl)ccc43)nn1)=C\CC[C@@]1(C)O[C@@H]21 | y |
| CSc1ccc(N=C=C(c2ccccc2)c2ccccc2)cc1 | n |

Call for entry C=C1CCC2C3(C)COC(c4ccc(SC)cc4)OC3CCC2(C)C1C/C=C1/C(=O)OCC1O (configuration not stated) : n

Could you kindly confirm the outcome this assay logged for Cc1cc(=O)oc2cc(Oc3nc(-c4cccs4)cn4c(-c5cccs5)cnc34)ccc12 ? n

Please let me know the test result on file for O=C1C2CC=CCC2C(=O)N1CNc1ccc(Cl)cc1 (configuration not stated) . n

// param item: Clc1cccc(Nc2nc(Nc3cnc4ccccc4c3)c3[nH]cnc3n2)c1 ; yields the recorded call n

// outcome(item) with item = CCOC(=O)c1cnc2cc(Cl)c(F)cc2c1Nc1cccc(NS(C)(=O)=O)c1 n

Hi team, can someone confirm the assay call for CCC(=O)Oc1ccc(/C(=C(\C)c2ccccc2)c2ccc(OCCN(CC)CC)cc2)cc1 ? n

Tell me the assay call for O=C(O)c1cccnc1Br please. n

----------
Test system: M14 melanoma
Assay: NCI-60 one-dose screen, 48 h (100 = growth as untreated, 0 = no growth, -100 = all killed)
Settings: 10 µM unless noted
The panel holds about 83,000 compounds, 20% with a hit somewhere; the sample as a whole holds those more often.
Assign satisfied whenever growth does not fall below 50%; assign not satisfied whenever it does.

Known results for compounds:
| compound | group |
| --- | --- |
| CCCCCCCCCCCCCC1=NCCN1CCO | not satisfied |
| Cc1cccc(NC(=O)c2sc3nc4c(cc3c2N)C(=O)CCC4)c1 | not satisfied |
| O=C1c2c[n+](Cc3ccccc3)ccc2-c2nc3ccccc3c3ccnc1c23 | not satisfied |
| CN(C)CCCC(=O)Nc1ccc(Cn2nnc3c2C(=O)c2nnn(Cc4ccc(NC(=O)CCCN(C)C)cc4)c2C3=O)cc1 | satisfied |
| COc1ccc(/C=N\NC(=O)CN2CCN(c3cc4c(cc3F)c(=O)c(C(=O)N/N=C/c3ccc(OC)cc3)cn4C3CC3)CC2)cc1 | satisfied |

Is growth for O=C(CN1CCOCC1)Nc1ccc(Cn2nnc3c2C(=O)c2nnn(Cc4ccc(NC(=O)CN5CCOCC5)cc4)c2C3=O)cc1 at or above 50%? not satisfied

Confirm if growth reported for the compound Cc1ccccc1CCO is 50% or above. satisfied

I'd appreciate it if you could say whether c1ccc2c(Nc3cccc4ccccc34)cccc2c1 has growth at least equal to 50%. not satisfied

Does the compound CS(=O)CCCCCN=C=S (configuration not stated) have recorded growth that is 50% or more? not satisfied

State whether the measured growth reaches 50%, counting equality as reaching it, for O=C(/C=C\c1cccc([N+](=O)[O-])c1)c1ccccc1 not satisfied

Hello, I need to know if O=c1[nH]c(-c2ccccn2)nc2sc3c(c12)CCCCC3 has measured growth not below 50%. Thanks! not satisfied

Tell me whether growth is at least 50% here: C=C1CCC2C3(C)COC(C)(C)OC3CCC2(C)C1C/C=C1/C(=O)OCC1OC(C)=O (configuration not stated) not satisfied

Determine whether measured growth meets or exceeds 50% for CC1=C(NCCN2CCCC2)C(=O)c2c(OCc3ccc(C(F)(F)F)cc3)cccc2C1=O not satisfied

Could you tell me if the measured growth of CNCc1cccc2c1OCCOCCOCCN(C)S(=O)(=O)c1ccc(cc1)-c1cnc(N)c(n1)C(=O)N2 reaches 50% or more? not satisfied

Can CCCCN(CCCC)Cc1c(C)[nH]c2cc(OC)ccc2c1=O be said to have growth at or above 50%? satisfied

Does the compound COc1cnc2c(c1)C(=O)c1c-2n(CCCN2CCCC2)c(=O)c2cc([N+](=O)[O-])ccc12 have recorded growth that is 50% or more? not satisfied

Answer whether growth of O=C1O[C@H]([C@H](O)CO)C(O)=C1O is greater than or equal to 50%. satisfied

----------
System: SK-MEL-5 melanoma
Assay: NCI-60 one-dose screen, 48 h
Details: 10 µM unless noted
Compounds without any hit were thinned out: in the full panel of roughly 83,000, 20% have a hit. Calls of active or inactive are those of the source. The calls were made as follows: active = growth percent below 10; inactive = the rest.
Answer with one of the outcomes active, inactive

Solved cases below.
| molecule | group |
| --- | --- |
| CCCCCn1cnc2c(=S)nc[nH]c21 | inactive |
| CCOC(=O)c1cnc2ccc(OC)cc2c1Nc1cccc(S(=O)(=O)NC)c1 | inactive |
| Fc1ccc(Cc2ccc(F)cc2)cc1 | inactive |
| CCOC(=O)c1c2ncccc2n2c(=O)n(-c3ccc(Cl)cc3)nnc12 | inactive |

In this assay, the call recorded for C=CC[N+]1(CC)CCN=C1CCCCCCCCCCCCCCCCC (configuration not stated) was what? active

----------
# growth annotations
Tested on: HCC-2998 colon
Experiment: NCI-60 one-dose screen, 48 h (100 = growth as untreated, 0 = no growth, -100 = all killed)
Details: 10 µM unless noted
Experimental: Growth inhibition of the HCC-2998 human tumor cell line is measured as a screen for anti-cancer activity. Cells are grown in 96 well plates and exposed to the test compound for 48 hours. Compounds are tested at a single concentration, which is 10^-5 M for most compounds. The reported endpoint is percent growth (GI% or GIPRCNT), where numbers from 0 - 100% represent growth inhibition, and numbers from -100% - 0 represent cell death. For example, a value of 40 represents 60% growth inhibition. […]
This is part of a sample that, as a whole, favours compounds with a hit. Of some 83,000 tested, about 20% had one in any assay. Calls of active or inactive are those of the source. How the source made its calls: active means growth percent below 10; inactive means the rest.

Previously resolved entries follow.
| compound | growth |
| --- | --- |
| O=C(Nc1cccc2[nH]c(C(F)(F)F)nc12)c1ccc(Br)cc1F | 48.3% (inactive) |
| COCCOC(=O)C1=C(C)NC(=S)NC1c1ccc2c(c1)OCO2 (stereo not given) | 109% (inactive) |

For the compound shown here, CCC(=O)Oc1ccc(/C(=C(\C)c2ccccc2)c2ccc(OCCN(CC)CC)cc2)cc1 , give the reported growth. 103% (inactive)

Recorded growth for CC(C)(C)c1nn(-c2ccccc2)c2c1CC1(CN2Cc2ccc3c(c2)OCO3)C(=O)c2ccccc2C1=O , please? 96.9% (inactive)

Entry COc1ccc(C(=O)/C=C/c2c[n+](=O)c3ccc(F)cc3n2[O-])cc1 : reported growth = ? 104% (inactive)

What value of growth has been recorded for this entry: Cc1cc(=O)oc2cc(Oc3nc(-c4cccs4)cn4c(-c5cccs5)cnc34)ccc12 78.1% (inactive)

What value of growth has been recorded for this entry: C/C(Cc1ccc(Cl)cc1)=C(\c1ccc(OCCN2CCCCCC2)cc1)c1ccc(OC(=O)Cc2ccccc2)cc1 22.3% (inactive)

Value lookup for growth; key = CSc1nc(NCCO)c(C#N)c(-c2cccc(N)c2)n1 109% (inactive)

Query: growth; subject: O=C1OC2C(I)C3CC2C1C3c1ccccc1 (stereo not given) 105% (inactive)

// growth lookup, key: Nc1nc(-c2ccc(F)cc2)cc(-c2cnn(-c3ccccc3)n2)n1 111% (inactive)

Report growth for COc1ccc(-c2cnoc2-c2cc(OC)c3c(c2)OCCO3)cc1 please. 8.32% (active)

What growth value was documented for this compound, Cc1ccc2cnc(N)c(C#Cc3cncc(C(=O)Nc4ccc(CN5CCN(C)CC5)c(C(F)(F)F)c4)c3)c2c1 ? -82.9% (active)

# input compound: O=C1/C(=C\c2cn(C(=O)c3ccc(Cl)cc3)c3ccccc23)c2ccccc2N1c1c(Cl)cccc1Cl ; wanted: its growth 102% (inactive)

Would you kindly share the measured growth for O=C(O)c1ccc2c(c1Sc1ccccc1)C(=O)c1ccccc1C2=O ? 105% (inactive)

Need growth of Cc1cc2c(cc1C)NC1=C(N2)OC(c2c3ccccc3cc3ccccc23)C1=O (stereo not given) , thanks. 7.57% (active)

Give its growth value. Item: C=C1CC[C@@H]2[C@](C)(COC(C)=O)[C@H](OC(C)=O)CC[C@@]2(C)[C@@H]1CC(NCc1ccc(F)cc1)C1=CCOC1=O (stereo not given in full) 89.3% (inactive)

State the recorded growth for this entry: COc1cc2c(cc1O)CCc1cc(O)cc(OC)c1-2 110% (inactive)

Report growth for COc1cc(NC(N)=NCC(C)(C)COc2ccc(C(F)(F)F)cc2)cnc1C#N please. 18.9% (inactive)

Quick one: growth of Oc1ccccc1N=Cc1c(O)ccc2ccccc12 ? 92.4% (inactive)
